These entries and their values trace back to the supplement of paper PMC11451515.

# Test system: NOMO1
# assayComment: cell viability relative to DMSO control; higher = less cytotoxic
# testConditions: RPMI 5 mM glucose + 10% FBS; 48 h; 0.00234 µM

| compound | unitAbbreviation | cell viability |
| --- | --- | --- |
| Cc1ccccc1C(C(=O)NC1CCCCC1)N(C(=O)CNc1ccc(C#N)cc1)c1cccc(F)c1 (centres undefined) | % | 88.5 |
| COc1ccc(CCC(=O)Nc2nc3ccc(Cl)cc3s2)cc1OC | % | 104 |
| CC(C)[C@@H](N(CCCN)C(=O)C1=CC=C(C)C=C1)C/2=C(\CC3=CC=CC=C3)C(=O)C4=C(O2)C=C(Cl)C=C4 | % | 26.5 |
| C[Se]CCC(N)C(=O)O (centres undefined) | % | 83.5 |
| O=C1c2cccc(O)c2C(=O)c2c(O)cc(CO)cc21 | % | 92.5 |
| O=P(O)(O)C(O)(Cc1cccnc1)P(=O)(O)[O][Na] (centres undefined) | % | 93.6 |
| NC12CC3CC(CC(C3)C1)C2 | % | 102 |
| CC(Oc1ccc(O)cc1)(P(=O)(O)O)P(=O)(O)O | % | 88 |
| Cn1c(=O)c2c(ncn2CC(O)CO)n(C)c1=O (centres undefined) | % | 98 |
| O=C(c1ccc(F)cc1)C1CCN(CCn2c(=O)[nH]c3ccccc3c2=O)CC1 | % | 118 |
| CC1(C)OC/2=C(\[C@H](NCC3=CC=CC=C3)[C@@H]1O)C(=O)C4=CC=CC=C4C2=O | % | 99.6 |
| CCCn1c(=O)c2[nH]c(-c3cnn(Cc4cccc(C(F)(F)F)c4)c3)nc2n(CC)c1=O | % | 93.1 |
| C[C@H]([C@H]1C\C(=C(CO)/C(=O)O1)C)[C@H]2CC[C@H]3[C@@H]4C[C@H]5O[C@]56[C@@H](O)\C=C/C(=O)[C@]6(C)[C@H]4CC[C@]23C | % | 123 |
| Nc1ccc([S+](=O)([O-])Nc2ccccn2)cc1 | % | 106 |
| COc1cc2nc(-c3ccc(N4CCN(C)CC4)cc3)nc(NCCN3CCOCC3)c2cc1OC | % | 103 |
| CC1OC(OC/2=C(/OC3=C(C(=CC(=C3)O)O)C2=O)C4=CC=C(O)C=C4)C(O)C(OC(C)=O)C1OC(C)=O (centres undefined) | % | 116 |
| Cc1cc(SCc2sc(-c3ccc(C(F)(F)F)c(F)c3)nc2C)ccc1OCC(=O)O | % | 90.4 |
| c1ccc2c(Oc3nc(Nc4ccc(N5CCOCC5)cc4)c4ncn(C5CCCCC5)c4n3)cccc2c1 | % | 117 |
| CN(C(=O)c1ccc(F)cc1C(F)(F)F)C1CCN(c2nnc(-c3ccnn3C)c3ccccc23)CC1 | % | 71.6 |

====

# Test system: P12-Ichikawa
# assayComment: AUC of viability dose-response curve (% viability x log10 dose units); higher = less sensitive
# testConditions: RPMI 5 mM glucose + 10% dialyzed FBS; 48 h
quantityMeasured: AUC of viability dose-response curve

| compound | quantitativeResult |
| --- | --- |
| Cc1nc2c([nH]1)-c1ccccc1N(C(=O)c1ccc(NC(=O)c3ccccc3-c3ccccc3)cc1)CC2 | 471 |
| CCC(C)N(C)C(=O)c1cc2ccccc2c(-c2ccccc2Cl)n1 (centres undefined) | 463 |
| COc1cc2nc(-c3ccc(N4CCN(C)CC4)cc3)nc(NCCN3CCOCC3)c2cc1OC | 345 |
| CN(C(=O)c1ccc(F)cc1C(F)(F)F)C1CCN(c2nnc(-c3ccnn3C)c3ccccc23)CC1 | 355 |
| CCOC(=O)c1ccc(C#Cc2ccc3c(c2)C(C)(C)CCS3)nc1 | 475 |
| CCCCOc1ccc(C(=O)Nc2ccc(F)cc2F)cc1 | 408 |
| CC(C)c1ccc2oc3nc(N)c(C(=O)O)cc3c(=O)c2c1 | 474 |
| OC1=C(C=CC=C1)C2=CC=C(C=C2)C3=CSC4=C3C(=C(/C#N)C(=O)N4)/O | 453 |
| c1ccc(-c2nn3c(c2-c2ccnc4cc(OCCN5CCOCC5)ccc24)CCC3)nc1 | 448 |

====

# Test system: NOMO1
# assayComment: cell viability relative to DMSO control; higher = less cytotoxic
# testConditions: RPMI 5 mM glucose + 10% dialyzed FBS; 48 h; 0.00702 µM
Reported values of cell viability for individual entries

| compound | cell viability / % |
| --- | --- |
| O=C1[O][Pt]2([NH]C3CCCCC3[NH]2)[O]C1=O (configuration not stated) | 100 |
| OC1=C(C=CC=C1)C2=CC=C(C=C2)C3=CSC4=C3C(=C(/C#N)C(=O)N4)/O | 131 |
| CO[C@@H]1[C@H](N(C)C(=O)c2ccccc2)C[C@H]2O[C@]1(C)n1c3ccccc3c3c4c(c5c6ccccc6n2c5c31)C(=O)NC4 | 123 |
| C[C@@]12OC(=O)[C@@]1(NC(=O)[C@@H]2CCCl)[C@@H](O)[C@H]\3CCC\C=C3 | 106 |
| O=P(O)(O)C(O)(Cc1cccnc1)P(=O)(O)[O][Na] (configuration not stated) | 82.8 |
| C=C1C[C@@]2(O)O[C@@]3(C[C@H]2C(C)C)[C@@H](C)CC[C@@H]13 | 118 |
| C[C@H]1CCC/C=C/C2C[C@H](O)C[C@H]2[C@H](O)/C=C/C(=O)O1 (some centres not stated) | 10 |
| CCOc1ccccc1OCCNC(C)Cc1ccc(OC)c([S+](N)(=O)[O-])c1 (configuration not stated) | 110 |
| CCOC(=O)c1ncn2c1CN(C)C(=O)c1cc(F)ccc1-2 | 110 |
| c1cc(OCCN2CCCCC2)cc(-c2n[nH]c3ccc(-c4nc[nH]n4)cc23)c1 | 101 |
| COC1=CC=C(C=C1)C/2=C/OC3=CC(=CC=C3C2=O)O | 113 |
| Nc1ccc([S+](=O)([O-])Nc2ccccn2)cc1 | 114 |

====

# Tested on: NOMO1
# assayComment: cell viability relative to DMSO control; higher = less cytotoxic
# testConditions: RPMI 5 mM glucose + 10% FBS; 48 h; 0.569 µM
Reported values of cell viability for individual entries

| smilesString | cell viability |
| --- | --- |
| CC(C)(O)CNc1nc(Nc2ccnc(C(F)(F)F)c2)nc(-c2cccc(C(F)(F)F)n2)n1 | 103% |
| COc1cc2nc(-c3ccc(N4CCN(C)CC4)cc3)nc(NCCN3CCOCC3)c2cc1OC | 84% |
| O=C1c2cccc(O)c2C(=O)c2c(O)cc(CO)cc21 | 90.6% |
| CN(C)CCC=C1C2=C(C=CC=C2)\C=C/C3=C1C=CC=C3 | 98.7% |
| NC/1=N/C(=O)N(/C=C1)[C@H]2CC[C@@H](CO)O2 | 85.7% |
| c1cc(-c2sc(-c3ccncc3)c(-c3ccncc3)c2-c2ccncc2)ccn1 | 127% |
| c1ccc(-c2nn3c(c2-c2ccnc4cc(OCCN5CCOCC5)ccc24)CCC3)nc1 | 108% |
| COc1ccc(Cn2ccc3ccc(C(=O)NO)cc32)cc1 | 130% |
| CN(C)c1nc(N(C)C)nc(N(C)C)n1 | 94.6% |
| COc1ccc(CCC(=O)Nc2nc3ccc(Cl)cc3s2)cc1OC | 113% |

====

# Test system: SEM cells
# assayComment: cell viability relative to DMSO control; higher = less cytotoxic
# testConditions: RPMI 5 mM glucose + 10% FBS; 48 h; 0.000781 µM
quantityMeasured: cell viability (%)

| smilesString | quantityMeasured | unitAbbreviation | quantitativeResult |
| --- | --- | --- | --- |
| C[C@@H]1CN(CC(=O)N2CC(C)(C)c3ncc(Cc4ccc(F)cc4)cc32)[C@@H](CN2CCOC[C@H]2C)CN1 | cell viability | % | 76.3 |
| NC12CC3CC(CC(C3)C1)C2 | cell viability | % | 42.3 |
| c1ccc2c(Oc3nc(Nc4ccc(N5CCOCC5)cc4)c4ncn(C5CCCCC5)c4n3)cccc2c1 | cell viability | % | 101 |
| CCC1=C(C)CN(C(=O)NCCc2ccc(S(=O)(=O)NC(=O)N[C@H]3CC[C@H](C)CC3)cc2)C1=O | cell viability | % | 81.1 |

====

# Tested on: NOMO1
# assayComment: cell viability relative to DMSO control; higher = less cytotoxic
# testConditions: RPMI 5 mM glucose + 10% dialyzed FBS; 48 h; 0.00234 µM
Reported values of cell viability for individual entries
quantityMeasured: cell viability (%)

| smilesString | quantitativeResult |
| --- | --- |
| CC1=C(C)C2=C(S1)[N]3C(=NN=C3[C@H](CC(=O)OC(C)(C)C)/N=C2/C4=CC=C(Cl)C=C4)C | 97.5 |
| NC\1=N\C(=O)N(\C=N1)[C@H]2C[C@H](O)[C@@H](CO)O2 | 122 |
| c1cc(OCCN2CCCCC2)cc(-c2n[nH]c3ccc(-c4nc[nH]n4)cc23)c1 | 97.1 |
| c1cc(-c2sc(-c3ccncc3)c(-c3ccncc3)c2-c2ccncc2)ccn1 | 107 |
| COC1=CC=C(C=C1)C/2=C/OC3=CC(=CC=C3C2=O)O | 120 |
| CNC(=O)c1c(F)cccc1Nc1nc(Nc2cc3c(cc2OC)CCN3C(=O)CN(C)C)nc2[nH]ccc12 | 111 |
| COc1ccc(CCC(=O)Nc2nc3ccc(Cl)cc3s2)cc1OC | 99.3 |
| CC1(C)O[C@H]2CC(=O)OC[C@]23[C@H]2CC[C@@]4(C)[C@H](c5ccoc5)OC(=O)[C@H]5O[C@]54[C@]2(C)C(=O)C[C@@H]13 | 95.7 |
